# MEASUREMENT DESCRIPTION: 90-day oral toxicology in rats
# CONDITION SET: both, rat, in vivo, oral
MEASURED PARAMETER: NOAEL at 90 days (mg/kg/day)
Use mg/kg/day as the unit, but write only the number.

## Task What value of NOAEL at 90 days has been reported for the following compound? CC(C)c1ccc(CC(=O)N[C@H](C)c2ccc(OCC(F)(F)F)cn2)cc1
## Result 300

###

# MEASUREMENT DESCRIPTION: in vivo
# CONDITION SET: male, rat, po, 300 mg/kg
MEASURED PARAMETER: AUC (µM·h)
Use µM·h as the unit, but write only the number.

## Task What value of AUC has been reported for the following molecule? C[C@@H](NC(=O)Cc1ccc(C(C)(C)O)cc1)c1ccc(OCC(F)(F)F)cn1
## Result 258

## Task What value of AUC has been reported for the following molecule? CC(C(=O)O)c1ccc(CC(=O)N[C@H](C)c2ccc(OCC(F)(F)F)cn2)cc1 (stereo partly shown)
## Result 213

## Task What value of AUC has been reported for the following molecule? C=C(C)c1ccc(CC(=O)N[C@H](C)c2ccc(OCC(F)(F)F)cn2)cc1
## Result 125

## Task What value of AUC has been reported for the following molecule? CC(CO)c1ccc(CC(=O)N[C@H](C)c2ccc(OCC(F)(F)F)cn2)cc1 (stereo partly shown)
## Result 19.4
